Entry source: PubChem BioAssay (NCI)

# Test system: RPMI-8226 leukemia
# assay_info: NCI tumour cell line growth inhibition, 48 h; in the data active = GI50 below about 0.43 µM; inactive = the rest
Choose the fitting class; nothing outside T = active, F = inactive is accepted.

Field: example entries. Status: answers known.
compound: CCN(CC)CCOc1ccc(NC(=O)C(C(C)C)N2C(=O)/C(=C/c3ccc(Br)cc3)SC2=S)cc1 (stereo unspecified)
assayed_target: RPMI-8226 leukemia
classification: F
--
compound: Fc1ccc(-c2c(-c3ccncc3)[nH]c3cccnc23)cc1
assayed_target: RPMI-8226 leukemia
classification: F
--
compound: COc1cc(C(=O)c2cnc(-c3ccc4cc[nH]c4c3)[nH]2)cc(OC)c1OC
assayed_target: RPMI-8226 leukemia
classification: T
--
compound: O=c1oc2ccc(I)cc2c(=O)n1-c1ccc(I)cc1F
assayed_target: RPMI-8226 leukemia
classification: T

*Q* Could you kindly confirm the outcome this assay logged for COc1ccc(C(=O)/C=C/c2c(C(F)(F)F)nc3ccccn23)cc1OC ?
*A* T

*Q* Could you kindly confirm the outcome this assay logged for O=c1oc2c(O)c(O)cc3c(=O)oc4c(O)c(O)cc1c4c23 ?
*A* F
